EXPERIMENTAL DETAILS: Topotecan PK following Compound 1 infusion
Assay type: in vivo, human
PARTICULARS: human, plasma, intravenous, Topotecan 0.75 mg/m^2 (Cohort 3) with Compound 1 200 mg/m^2, Day 1, individual subjects; read-out: t½ (converted)
VALUE TYPE: half-life (h)
Your answer should be a plain number; it is taken to be in h.

Any idea what its half-life is? The molecule is CC[C@@]1(O)C(=O)OCc2c1cc1n(c2=O)Cc2cc3c(CN(C)C)c(O)ccc3nc2-1.Cl
4.32

====

EXPERIMENTAL DETAILS: Single escalating dose IV infusion pharmacokinetics in healthy volunteers (noncompartmental)
Type: in vivo, human
PARTICULARS: both sexes, human, plasma, iv, 48 mg/m^2, Compound 1 Concentration, Cohort 4, 48 mg/m^2 IV; Time 1.00 h; r7-9=Subjects 1-3,r11=Mean,r13=Min,r14=Median,r15=Max,r17=Geometric Mean
VALUE TYPE: concentration at 1 h
The reply should consist of the numeric value with the unit placed after it.

Any idea what its concentration at 1 h is? The compound is CN1CCN(c2ccc(Nc3ncc4cc5n(c4n3)C3(CCCCC3)CNC5=O)nc2)CC1
81.9 ng/mL
